B1: Syntaxin-binding protein 4, residues 493 to 538; numbered along this chain, Q6ZWJ1 (parent)
chain: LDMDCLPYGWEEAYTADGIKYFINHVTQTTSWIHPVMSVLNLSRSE

- Variants of: B1
- Protocol: abundance fitness (aPCA) (normalised: wild type 0, dead -1); higher = more abundant; growth selection in yeast, the domain comes from the species named
- Assay Context: Homo sapiens
Measured Metric: abundance fitness

[[record]]
mutant_code = "N24K"
measured_metric = "abundance fitness"
value = -1.12

[[record]]
mutant_code = "A16E"
measured_metric = "abundance fitness"
value = -0.118

[[record]]
mutant_code = "A13I"
measured_metric = "abundance fitness"
value = -0.998

[[record]]
mutant_code = "H34P"
measured_metric = "abundance fitness"
value = -0.181

[[record]]
mutant_code = "S43H"
measured_metric = "abundance fitness"
value = -0.021

[[record]]
mutant_code = "H34G"
measured_metric = "abundance fitness"
value = -0.822

[[record]]
mutant_code = "Y21M"
measured_metric = "abundance fitness"
value = -1.03

[[record]]
mutant_code = "D17C"
measured_metric = "abundance fitness"
value = -0.873

[[record]]
mutant_code = "K20W"
measured_metric = "abundance fitness"
value = -0.686

[[record]]
mutant_code = "Y21W"
measured_metric = "abundance fitness"
value = -0.674

[[record]]
mutant_code = "T29Q"
measured_metric = "abundance fitness"
value = -0.956

[[record]]
mutant_code = "I23P"
measured_metric = "abundance fitness"
value = -0.4

[[record]]
mutant_code = "L40P"
measured_metric = "abundance fitness"
value = 0.067

[[record]]
mutant_code = "V39T"
measured_metric = "abundance fitness"
value = 0.04

[[record]]
mutant_code = "E46A"
measured_metric = "abundance fitness"
value = -0.517

[[record]]
mutant_code = "Y21K"
measured_metric = "abundance fitness"
value = -0.923

[[record]]
mutant_code = "E46L"
measured_metric = "abundance fitness"
value = -0.668

[[record]]
mutant_code = "P7A"
measured_metric = "abundance fitness"
value = -0.646

[[record]]
mutant_code = "T15W"
measured_metric = "abundance fitness"
value = -0.814

[[record]]
mutant_code = "G9T"
measured_metric = "abundance fitness"
value = -0.833

[[record]]
mutant_code = "E12T"
measured_metric = "abundance fitness"
value = -0.518

[[record]]
mutant_code = "V36S"
measured_metric = "abundance fitness"
value = 0.659

